B1: Membrane-associated guanylate kinase, WW and PDZ domain-containing protein 2, residues 296 to 340; numbered along this chain, Q86UL8 (parent)
chain: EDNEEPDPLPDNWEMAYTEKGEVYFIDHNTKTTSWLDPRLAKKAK

Variants of: B1
assay_comment: abundance fitness (aPCA) (normalised: wild type 0, dead -1); higher = more abundant; growth selection in yeast, the domain comes from the species named
applied_conditions: Homo sapiens
Record Met whenever abundance fitness is at -0.1 or higher; record Not met when lower.

Qu. Please tell me: is the variant D2R at or over -0.1 in terms of abundance fitness?
Ans. Met

Qu. Please tell me: is the variant L36R at or over -0.1 in terms of abundance fitness?
Ans. Met

Qu. Please tell me: is the variant L36F at or over -0.1 in terms of abundance fitness?
Ans. Not met

Qu. Please tell me: is the variant E22N at or over -0.1 in terms of abundance fitness?
Ans. Not met

Qu. Please tell me: is the variant D37Y at or over -0.1 in terms of abundance fitness?
Ans. Not met

Qu. Please tell me: is the variant K42W at or over -0.1 in terms of abundance fitness?
Ans. Met

Qu. Please tell me: is the variant K42D at or over -0.1 in terms of abundance fitness?
Ans. Met

Qu. Please tell me: is the variant F25E at or over -0.1 in terms of abundance fitness?
Ans. Not met

Qu. Please tell me: is the variant W35K at or over -0.1 in terms of abundance fitness?
Ans. Not met

Qu. Please tell me: is the variant E22M at or over -0.1 in terms of abundance fitness?
Ans. Not met

Qu. Please tell me: is the variant D2K at or over -0.1 in terms of abundance fitness?
Ans. Met

Qu. Please tell me: is the variant K45Q at or over -0.1 in terms of abundance fitness?
Ans. Met

Qu. Please tell me: is the variant P10M at or over -0.1 in terms of abundance fitness?
Ans. Not met

Qu. Please tell me: is the variant P6R at or over -0.1 in terms of abundance fitness?
Ans. Met

Qu. Please tell me: is the variant N3P at or over -0.1 in terms of abundance fitness?
Ans. Not met

Qu. Please tell me: is the variant A16S at or over -0.1 in terms of abundance fitness?
Ans. Met
